assay-system: T1, EPAS (peptide code EPAS-001) peptide on HLA-A*02:01 (human)
T1 peptide: KALEGFIAV
protocol-text: cytokine release

[
  {
    "binder": "R26P2A6 (TCR, V domains shown) Valpha: QKEVEQDPGPLSVPEGAIVSLNCTYSNSAFQYFMWYRQYSRKGPELLMYTYSSGNKEDGRFTAQVDKSSKYISLFIRDSQPSDSATYLCAMSDVSGGYNKLIFGAGTRLAVHP Vbeta: EAQVTQNPRYLITVTGKKLTVTCSQNMNHEYMSWYRQDPGLGLRQIYYSMNVEVTDKGDVPEGYKVSRKEKRNFPLILESPSPNQTSLYFCASTTPDGTDEQFFGPGTRLTVL",
    "binding result": "no recognition"
  },
  {
    "binder": "R26P1A9 (TCR, V domains shown) Valpha: SQQGEEDPQALSIQEGENATMNCSYKTSINNLQWYRQNSGRGLVHLILIRSNEREKHSGRLRVTLDTSKKSSSLLITASRAADTASYFCLIGASGSRLTFGEGTQLTVNP Vbeta: DAGVIQSPRHEVTEMGQEVTLRCKPISGHDYLFWYRQTMMRGLELLIYFNNNVPIDDSGMPEDRFSAKMPNASFSTLKIQPSEPRDSAVYFCASSYFGWNEKLFFGSGTQLSVL",
    "binding result": "no recognition"
  }
]
